The origin of these recorded values is patent US7718641B2.

testedTarget: UniProtKB P78348
Sequence (P78348 whole entry): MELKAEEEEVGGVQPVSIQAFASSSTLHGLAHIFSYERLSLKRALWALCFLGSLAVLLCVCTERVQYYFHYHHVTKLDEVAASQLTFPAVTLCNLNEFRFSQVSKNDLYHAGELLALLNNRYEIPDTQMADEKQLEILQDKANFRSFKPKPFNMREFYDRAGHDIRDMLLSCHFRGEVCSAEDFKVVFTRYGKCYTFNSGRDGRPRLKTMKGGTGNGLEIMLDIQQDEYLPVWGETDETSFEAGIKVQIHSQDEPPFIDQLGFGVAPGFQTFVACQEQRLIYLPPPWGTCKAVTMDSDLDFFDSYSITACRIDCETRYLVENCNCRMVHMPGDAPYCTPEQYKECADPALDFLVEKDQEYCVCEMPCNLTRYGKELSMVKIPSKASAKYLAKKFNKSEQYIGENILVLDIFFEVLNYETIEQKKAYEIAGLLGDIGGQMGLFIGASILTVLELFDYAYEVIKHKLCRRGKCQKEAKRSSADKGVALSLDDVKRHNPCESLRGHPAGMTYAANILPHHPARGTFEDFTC
methodDescription: Calcium-imaging (FLIPR, Fluo-4) of acid (MES)-induced calcium response in ASIC1a expressing HEK293 cells
runConditions: calcium mobilization assay, MES-induced calcium response, HEK293, n=3-7
reportedEndpoint: IC50

See these solved cases before continuing.
CCOc1ccccc1-c1cc2c(c3c1CCN(CC)C3)NC(=O)/C2=N/O : 0.3 to 1.7 µM
Cc1cc(C)cc(-c2cc3c(c4c2CCN(C)C4)NC(=O)/C3=N/O)c1 : 0.25 to 0.35 µM
COc1ccc(Cl)cc1-c1cc2c(c3c1CCN(C)C3)NC(=O)/C2=N/O : 0.2 to 0.3 µM
CCN1CCc2c(-c3ccccc3OC)cc3c(c2C1)NC(=O)/C3=N/O : 0.1 to 0.7 µM
CCN1CCc2c(-c3cc(F)ccc3OC)cc3c(c2C1)NC(=O)/C3=N/O : 0.02 to 0.03 µM

INPUT: Short answer please: IC50, UniProtKB P78348, entry CCN1CCc2c(-c3ccccc3)cc3c(c2C1)NC(=O)/C3=N/O
OUTPUT: 0.015 to 0.25 µM

INPUT: Short answer please: IC50, UniProtKB P78348, entry COc1ccc(F)cc1-c1cc2c(c3c1CCN(C)C3)NC(=O)/C2=N/O
OUTPUT: 0.1 to 0.2 µM
